All figures here come from ChEMBL document CHEMBL1926650.

# Method Notes: Cytotoxicity against LPS-stimulated mouse BV2 cells assessed as cell viability after 24 hrs by MTT assay relative to control
# Format: cell-based, BV-2
# Run Parameters: read-out: Activity
Readout Name: viability at 24 h
Kindly format the answer as number then unit.

Known results for compounds:
C/C=C/c1cc(OC)c(O[C@H](C)[C@H](O)c2ccc(OC)c(OC)c2)c(OC)c1    102%
COc1ccc(C[C@@H](CO)Oc2ccc(CCCO)cc2OC)cc1OC    98.4%
COc1cc(C[C@H](CO)Oc2ccc(CCCO)cc2OC)ccc1O    97.1%
COc1ccc([C@H]2O[C@H](c3ccc(OC)c(OC)c3)[C@@H](C)[C@H]2C)cc1OC    104%
C/C=C\c1ccc(O[C@H](C)[C@H](OC(C)=O)c2ccc(OC)c(OC)c2)c(OC)c1    90.5%
COc1cc([C@@H]2O[C@@H](c3cc(OC)c(O)c(OC)c3)[C@H](CO[C@@H]3O[C@H](CO)[C@@H](O)[C@H](O)[C@H]3O)[C@H]2CO)cc(OC)c1O    84.4%

The compound COc1cc([C@H](O)[C@H](CO)Oc2ccc(CCCO)cc2OC)ccc1O showed viability at 24 h equal to 96.7%

The compound COc1ccc([C@H]2O[C@H](c3cc(OC)c(OC)c(OC)c3)[C@@H](C)[C@H]2C)cc1OC showed viability at 24 h equal to 88.6%
